Value source: patent US20230263916A1

Target: T1, human Her2 (ECD)-Fc protein (human, UniProt P04626 23-652)
T1 construct: extracellular domain; Made in HEK293F cells; also called hHer2 (ECD)-Fc antigen; Her2 (ECD)-Fc antigen; not shown: TEV restriction site at the C-terminal of hHer2 (ECD); IgG1 Fc of the pFUSE-IgG1 vector
Experiment: PE-ELISA, A405 of antigen well over control well
result-type: Ratio(+/-)

The examples below pair each entry with its known result.
| binder | result-type | recorded-measurement |
| --- | --- | --- |
| Nanobody No. 1 (VHH, not shown: tags (HA, His) implied by anti-HA detection and nickel column) VHH: QVQLQESGGGSVQAGETLRLSCTASGFTFDDSDMGWYRQAPGNECELVSTISSDGSTYYADSVKGRFTISQDNAKNTVYLQMNSLKPEDTAVYYCAAHPLHYELGTCAALDYWGRGTQVTVSS | Ratio(+/-) | 22.3 |
| Nanobody No. 26 (VHH, camel VHH from pMECs phage display vector; also called Antibody no; 26; not shown: tags (HA, His) implied by anti-HA detection and nickel column) VHH: QVQLQESGGGSVQAGETLRLSCTASGFTFDDSDMGWYRQAPGNECELVSSISSDGSTYYADSVKGRFTISQDNAKNTVYLQMNSLKPEDTGVYYCAAEGHRYELGTCAALDYWGRGTQVTVSS | Ratio(+/-) | 21.1 |
| Nanobody No. 36 (VHH, also called 36; not shown: tags (HA, His) implied by anti-HA detection and nickel column) VHH: QVQLQESGGGSVQAGESLRLSCRTSGFSFDDVDMGWYRQAPGNECELVSTISSDGSTYYADSVKGRFTISQDNAKNTVYLQMNSLKPEDTAMYYCAAARYSDYEGMCGYWSQGTQVTVSS | Ratio(+/-) | 21.6 |
| Nanobody No. 21 (VHH, also called 21; not shown: tags (HA, His) implied by anti-HA detection and nickel column) VHH: QVQLQESGGGLVQPRGSLRLSCTASGFTFDDSDSDMGWYRQAPGNECELVSSISSDGSTYYADSVKGRFTISQDNAKNTVYLQMNSLKPEDTAVYYCAAINSGYELGTCESLDYWGRGTQVTVSS | Ratio(+/-) | 20.3 |
| Nanobody No. 4 (VHH, not shown: tags (HA, His) implied by anti-HA detection and nickel column) VHH: QVQLQESGGGLVQPGGSLRLSCTASRFTFDDSDMAWYRQAPGNECELVSIISSDGSTYYADSVKGRFTISLDNTKSTVYLQMNSLKPEDTAVYYCAAHPLHYELGTCAALDYWGRGTQVTVSS | Ratio(+/-) | 21.2 |
| Nanobody No. 5 (VHH, not shown: tags (HA, His) implied by anti-HA detection and nickel column) VHH: QVQLQESGGGSVQAGGSLRLSCTVSGFSFDDSDMGWYRRAPGNECELVSGISRDGSTYYADSVKGRFTISQDNAKNWVYLQMNSLKPEDTAVYYCAAATYSDYVCDYWTQGTQVTVSS | Ratio(+/-) | 12.7 |
| Nanobody No. 27 (VHH, also called 27; not shown: tags (HA, His) implied by anti-HA detection and nickel column) VHH: QVQLQESGGGSVQAGETLRLSCTASGFTFDDSDMGWYRQAPGNECELVSTISSDGSTYYADSVKGRFTISQDNAKNTVYLQMNSLKPEDTAVYYCAADHGGGYELGTCAALDYWGRGTQVTVSS | Ratio(+/-) | 20.5 |

Let us examine a further case.
Q: Ratio(+/-) lookup needed for Nanobody No. 37 (VHH, also called 37; not shown: tags (HA, His) implied by anti-HA detection and nickel column) VHH: QVQLQESGGGSVQAGETLRLSCTVSGFTFDDADMGWYRQAPGNQCELVSTISSDGITYYADSVKGRFTVSQDNAKNTVYLQMNSLKPEDTAMYYCAAARYSDYEGMCGYWSQGTQVTVSS , thanks.
Ans: 19.6
